- Test system: U2OS
- assay_protocol: Multiplex assay against U2OS
- Assay type: toxicity, cell-based
- experimental_conditions: human, 48 h, 10 µM, compound concentration 10 uM, replicate 1
quantity: Population Hoechst High Intensity Objects (%)

test_smiles=COc1c(C)cc(NC(=O)c2nn(Cc3ccc(F)cc3)c3c2CN(C(=O)c2ccc[nH]2)C[C@]3(C)C(N)=O)cc1C measure_unit=% reported_value=17
test_smiles=CCCC(CCC)C(=O)O measure_unit=% reported_value=2
test_smiles=O=C(O)c1cc2ccccc2c(Cc2c(O)c(C(=O)O)cc3ccccc23)c1O measure_unit=% reported_value=3
test_smiles=CCCn1c(=O)c2[nH]c(C3CCCC3)nc2n(CCC)c1=O measure_unit=% reported_value=2
test_smiles=N#Cc1c(N)nc(SCc2csc(-c3ccc(Cl)cc3)n2)c(C#N)c1-c1ccc(OCCO)cc1 measure_unit=% reported_value=5
